Biological target: Wee1-like protein kinase (Homo sapiens, UniProt P30291)
Sequence (P30291 whole entry): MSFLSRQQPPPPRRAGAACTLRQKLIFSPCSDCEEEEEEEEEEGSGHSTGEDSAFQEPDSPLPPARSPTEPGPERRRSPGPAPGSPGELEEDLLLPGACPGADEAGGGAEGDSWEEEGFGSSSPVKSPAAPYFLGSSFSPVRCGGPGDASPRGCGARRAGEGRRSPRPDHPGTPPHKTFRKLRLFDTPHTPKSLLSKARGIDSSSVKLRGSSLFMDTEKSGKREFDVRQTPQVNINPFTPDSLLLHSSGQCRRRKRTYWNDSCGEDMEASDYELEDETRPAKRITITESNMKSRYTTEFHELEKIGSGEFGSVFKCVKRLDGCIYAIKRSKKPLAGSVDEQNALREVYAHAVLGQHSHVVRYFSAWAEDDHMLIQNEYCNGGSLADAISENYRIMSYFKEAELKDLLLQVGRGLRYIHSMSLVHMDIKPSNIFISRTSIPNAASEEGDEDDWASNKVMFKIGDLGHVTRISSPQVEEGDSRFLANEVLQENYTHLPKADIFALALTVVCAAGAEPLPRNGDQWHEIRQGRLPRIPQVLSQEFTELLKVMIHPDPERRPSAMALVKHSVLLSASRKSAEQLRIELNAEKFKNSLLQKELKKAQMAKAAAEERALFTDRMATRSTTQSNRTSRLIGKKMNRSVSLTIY
Test: Inhibition of human Weel1 in human NCI-H1299 cells assessed as phosphorylation of Cdk1 after overnight incubation by ELISA PD assay
pEC50: −log10 of the molar value.
assay-endpoint: pEC50

INSERT INTO assay_data (chemical_smiles, tgt, assay_endpoint, value) VALUES
  ('CN1CCN(c2ccc(Nc3ncc4c(=O)n(-c5c(Cl)cccc5Cl)c5nccn5c4n3)cc2)CC1', 'Wee1-like protein kinase (Homo sapiens, UniProt P30291)', 'pEC50', 7.06),
  ('O=c1c2cnc(Nc3ccc4c(c3)CCCC4)nc2n2ccnc2n1-c1ccccc1Cl', 'Wee1-like protein kinase (Homo sapiens, UniProt P30291)', 'pEC50', 5.22);

[a] CN1Cc2cc(Nc3ncc4c(=O)n(-c5ccccc5Cl)c5nccn5c4n3)ccc2C(C)(C)C1
[b] CN1Cc2cc(Nc3ncc4c(=O)n(-c5c(F)cccc5Cl)c5nccn5c4n3)ccc2C(C)(C)C1
Ask: Parameter check: reported pEC50 is higher for which label, a or b ? Reply with the label of the item you choose.
Result: b
(b: 7.22, a: 7.01)

[P] CN1Cc2cc(Nc3ncc4c(=O)n(-c5ccccc5Cl)c5nccn5c4n3)ccc2C2(CC2)C1
[Q] CC(=O)N1Cc2cc(Nc3ncc4c(=O)n(-c5ccccc5Cl)c5nccn5c4n3)ccc2C2(CC2)C1
[R] CN1CCCc2ccc(Nc3ncc4c(=O)n(-c5ccccc5Cl)c5nccn5c4n3)cc21
Ask: Put the entries in order of pEC50, starting with the largest number. As an answer, provide the labels arranged in the order called for.
Result: P, Q, R

---

Assay: Oral bioavailability in CD-1 mouse at 10 mg/kg
Type: ADME, organism-based
Settings: in vivo
assay-endpoint: bioavailability (%)

Some solved cases for reference:
INSERT INTO measurements (chemical_smiles, value) VALUES
  ('CN1CCc2ccc(Nc3ncc4c(=O)n(-c5ccccc5Cl)c5nccn5c4n3)cc2C1', 52),
  ('CN1Cc2cc(Nc3ncc4c(=O)n(-c5c(F)cccc5Cl)c5nccn5c4n3)ccc2C2(CC2)C1', 68),
  ('CN1Cc2cc(Nc3ncc4c(=O)n(-c5ccccc5Cl)c5nccn5c4n3)ccc2C2(CC2)C1', 70);

[1] CN1CCN(c2ccc(Nc3ncc4c(=O)n(-c5c(Cl)cccc5Cl)c5nccn5c4n3)cc2)CC1
[2] CN1Cc2cc(Nc3ncc4c(=O)n(-c5ccccc5Cl)c5nccn5c4n3)ccc2C(C)(C)C1
Ask: // compare measured bioavailability between 1 and 2 ; output the lower one Reply with the label of the item you choose.
Result: 1
(1: 55%, 2: 80%)

[a] CN1CCN(c2ccc(Nc3ncc4c(=O)n(-c5ccccc5Cl)c5nccn5c4n3)cc2)CC1
[b] CN1Cc2cc(Nc3ncc4c(=O)n(-c5c(Cl)cccc5Cl)c5nccn5c4n3)ccc2C(C)(C)C1
Ask: Sorting ascending by bioavailability, which comes first: a or b ? State the label of the item chosen.
Result: b
(b: 49%, a: 72%)

---

Test: Clearance in CD-1 mouse at 3 mg/kg, iv
Assay type: ADME, organism-based
Parameters: dose 3 mg/kg, route intravenous
Details: in vivo
assay-endpoint: clearance (mL/min/kg)

INSERT INTO results (chemical_smiles, value) VALUES
  ('CN1Cc2cc(Nc3ncc4c(=O)n(-c5c(F)cccc5Cl)c5nccn5c4n3)ccc2C(C)(C)C1', 9.17),
  ('CN1Cc2cc(Nc3ncc4c(=O)n(-c5ccccc5Cl)c5nccn5c4n3)ccc2C2(CC2)C1', 25),
  ('CN1Cc2cc(Nc3ncc4c(=O)n(-c5c(F)cccc5Cl)c5nccn5c4n3)ccc2C2(CC2)C1', 18.3);

[I] CN1Cc2cc(Nc3ncc4c(=O)n(-c5c(Cl)cccc5Cl)c5nccn5c4n3)ccc2C(C)(C)C1
[II] CN1Cc2cc(Nc3ncc4c(=O)n(-c5ccccc5Cl)c5nccn5c4n3)ccc2C(C)(C)C1
Ask: Consider entries I and II . Which has the numerically lower clearance? Choose, then provide that item's label.
Result: I
